System: LB831-BLC (Bladder Carcinoma);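 also: after 72 h of two-drug dosing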
PROCEDURE DETAILS: Bliss excess, mean over the matrix (fraction); higher = more synergy
Could you please report measured Bliss excess for the items listed next?
One number for each entry.

COc1cc2c(cc1OCCCCCOc1cc3c(cc1OC)C(=O)N1C=C(C)C[C@H]1C=N3)N=C[C@@H]1CC(C)=CN1C2=O [SG3199] + O=C(c1cc(Cc2n[nH]c(=O)c3ccccc23)ccc1F)N1CCN(C(=O)C2CC2)CC1 [Olaparib] (first compound max 0.001 µM, 7x7, partner max 10 µM)    -0.0486

Please go through the list and note Bliss excess for each molecule.
1. Cc1c2c(nn1C)CSCc1cc(n(C)n1)CSc1cc(c3ccccc3c1)OCCCc1c(C(=O)O)n(C)c3c-2c(Cl)ccc13 [AZD5991] + Nc1ccn([C@@H]2O[C@H](CO)[C@@H](O)C2(F)F)c(=O)n1 [Gemcitabine] (first compound max 1 µM, 7x7, partner max 0.3 µM)
2. O=C(c1cc(Cc2n[nH]c(=O)c3ccccc23)ccc1F)N1CCN(C(=O)C2CC2)CC1 [Olaparib] + Cc1c2c(nn1C)CSCc1cc(n(C)n1)CSc1cc(c3ccccc3c1)OCCCc1c(C(=O)O)n(C)c3c-2c(Cl)ccc13 [AZD5991] (first compound max 10 µM, 7x7, partner max 1 µM)

1. -0.0443
2. -0.0371

Hello, the source for this data is the supplement of paper PMC11061612, in case you need it.
